metric name: melting point

Consider the following illustrative entries.
compound	melting point
NC(=O)c1cc(C(c2c(F)ccc(F)c2F)S(=O)(=O)CCC(F)(F)F)c(Cl)cn1 (stereo not given)	237 to 239 °C
COc1ccc2c(c1)c(CC(=O)OCCNC(=O)C1=CN(C)C=CC1)c(C)n2C(=O)c1ccc(Cl)cc1	60 to 65 °C

(Q) Give melting point for the following compound: COc1cc(F)ccc1CCn1ccn2c(=O)cc(-c3ccncn3)nc12
(A) 196 to 198 °C

(Q) Provide melting point value for the following compound: C=CCOC(=O)c1ccc(-c2nn(-c3ccc(C(=O)ON4C(=O)CCC4=O)cc3)c3ccccc23)cc1
(A) 178 °C

(Q) Provide melting point value for the following compound: COC(=O)C(Cc1ccc(OC)c(C(=O)NCc2ccc(C(F)(F)F)cc2)c1)SC (stereo not given)
(A) 127 to 128 °C

(Q) Fill in melting point for record CN(C(=O)CN(C(=O)CNC(=O)Nc1cccc(O)c1)c1ccccc1)c1ccccc1
(A) 180 °C

(Q) Give the measured melting point for CCOC(=O)NS(=O)(=O)c1ccc(C(=O)C=Cc2cc(-c3cc4ccccc4[nH]3)c(OC)cc2OC)cc1
(A) 165 to 175 °C
